Molecular target: HLA-B*40:01
Assay: IEDB peptide-MHC binding, purified MHC/direct/fluorescence; filed as Kd, often an IC50 or EC50 that approximates it; bounds were set here for any values at or beyond the usual limits of such assays
Conditions: source organism: Campylobacter jejuni
pKd: −log10 of the molar value.
Assay endpoint: pKd

**Query** Recorded pKd for "SFGAGTLAK" , please?
**Result** ≤ 4.70

----------
Biological target: HLA-B*40:02
Assay: IEDB peptide-MHC binding, purified MHC/competitive/radioactivity; filed as Kd, often an IC50 or EC50 that approximates it; bounds were set here for any values at or beyond the usual limits of such assays
Details: source organism: Mammarenavirus guanaritoense
Assay endpoint: Kd

**Query** Quick check: Kd on HLA-B*40:02, item "YEERLNEQLL" ?
**Result** 1640 nM

Just for reference, the Immune Epitope Database (IEDB) is where these values come from.
